target: HLA-B*46:01; assay: IEDB peptide-MHC binding, purified MHC/competitive/fluorescence; filed as Kd, often an IC50 or EC50 that approximates it; bounds were set here for any values at or beyond the usual limits of such assays; conditions: source organism: Entamoeba dispar SAW760
pKd: −log10 of the molar value.
outcomeMeasure: pKd

Reported pKd, sequence STYQFSLMQ : ____ ≤ 4.70

---

molecular target: HLA-B*27:05; experiment: IEDB peptide-MHC binding, purified MHC/direct/fluorescence; filed as Kd, often an IC50 or EC50 that approximates it; bounds were set here for any values at or beyond the usual limits of such assays; details: source organism: Influenza A virus (A/South Carolina/1/1918(H1N1))
outcomeMeasure: Kd

Query: Kd; subject: RLFFKCIYR ≥ 20 µM
